SUBJECT OF TEST: Solute carrier family 22 member 2 (Rattus norvegicus)
Sequence (Q9R0W2 whole entry): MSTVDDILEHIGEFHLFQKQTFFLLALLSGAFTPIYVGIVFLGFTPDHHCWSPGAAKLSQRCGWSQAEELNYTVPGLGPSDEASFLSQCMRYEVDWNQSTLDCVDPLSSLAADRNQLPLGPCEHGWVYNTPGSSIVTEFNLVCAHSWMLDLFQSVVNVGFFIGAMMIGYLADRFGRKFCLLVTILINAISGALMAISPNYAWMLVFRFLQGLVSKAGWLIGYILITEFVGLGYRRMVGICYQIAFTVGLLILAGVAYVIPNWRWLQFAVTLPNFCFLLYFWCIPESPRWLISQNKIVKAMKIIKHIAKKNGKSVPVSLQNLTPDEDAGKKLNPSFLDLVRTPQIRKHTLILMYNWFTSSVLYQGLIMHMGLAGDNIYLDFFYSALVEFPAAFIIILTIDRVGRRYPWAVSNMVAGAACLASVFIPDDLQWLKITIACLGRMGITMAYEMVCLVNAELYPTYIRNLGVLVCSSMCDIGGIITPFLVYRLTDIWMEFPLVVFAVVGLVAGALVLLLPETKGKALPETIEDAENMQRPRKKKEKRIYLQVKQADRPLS
EXPERIMENT: TP_TRANSPORTER: inhibition of TEA uptake in Xenopus laevis oocytes
Format: functional, cell-based, Oocyte
ASSAY METRIC: Ki (µM)
Write it as a number; the unit µM goes unstated.

I am curious: what Ki value has been reported for C=C[C@H]1C[N@@]2CC[C@H]1C[C@H]2[C@H](O)c1ccnc2ccc(OC)cc12 [QUININE] ?
55
